The reported measurements were obtained from patent EP4778932A1.

System: NCI-N87
Test: cells
Assay type: cell-based
Conditions: Homo sapiens, 120 h; NCI-N87 cells, five days co-incubation; read-out: IC50 (nM) NCI-N87
Procedure: MDA-MB-231, OV90, and NCI-N87 cells at defined cell densities (1,500 cells per well, 80 µL volume) were seeded into 96-well plates. The cells were cultured overnight in a constant-temperature incubator (37°C, 5% CO2). Ecteinascidin derivative solutions at a maximum concentration of 2 mM were first prepared in DMSO, and serial 1:4 gradient dilutions were performed. 1 µL of each DMSO-prepared dilution was added to 99 µL of PBS containing 10% FBS per well and mixed thoroughly. […]
Exercise: for every item that follows, state its recorded IC50.

Can you look up the measured IC50 of COc1cc2c(cc1NC(=O)[C@H]1C[C@@H](O)C1)CCN[C@]21CS[C@@H]2c3c(OC(C)=O)c(C)c4c(c3[C@H](COC1=O)N1[C@@H]2[C@H]2c3c(cc(C)c(OC)c3O)C[C@@H]([C@@H]1C#N)N2C)OCO4 [P74] for me?
< 1 nM

Can you look up the measured IC50 of COc1c(C)cc2c(c1O)[C@@H]1[C@@H]3[C@@H]4SC[C@]5(NCCc6cc(NC(=O)CO)c(O)cc65)C(=O)OC[C@@H](c5c6c(c(C)c(OC(C)=O)c54)OCO6)N3[C@@H](C#N)[C@H](C2)N1C [T9] for me?
1 to 10 nM

Can you look up the measured IC50 of COc1c(C)cc2c(c1O)[C@@H]1[C@@H]3[C@@H]4SC[C@]5(NC[C@H](O)c6cc(N)ccc65)C(=O)OC[C@@H](c5c6c(c(C)c(OC(C)=O)c54)OCO6)N3[C@@H](C#N)[C@H](C2)N1C [P10] for me?
< 1 nM

Can you look up the measured IC50 of COc1c(C)cc2c(c1O)[C@@H]1[C@@H]3[C@@H]4SC[C@]5(NCCc6cc(N)c(OC)c(OC)c65)C(=O)OC[C@@H](c5c6c(c(C)c(OC(C)=O)c54)OCO6)N3[C@@H](C#N)[C@H](C2)N1C [T14] for me?
10 to 200 nM

Can you look up the measured IC50 of COc1cc2c(cc1N)C(OC)CN[C@]21CS[C@@H]2c3c(OC(C)=O)c(C)c4c(c3[C@H](COC1=O)N1[C@@H]2[C@H]2c3c(cc(C)c(OC)c3O)C[C@@H]([C@@H]1C#N)N2C)OCO4 (stereo partly drawn) [T10] for me?
< 1 nM

Can you look up the measured IC50 of COc1cc2c(cc1N)[C@H](O)CN[C@]21CS[C@@H]2c3c(OC(C)=O)c(C)c4c(c3[C@H](COC1=O)N1[C@@H]2[C@H]2c3c(cc(C)c(OC)c3O)C[C@@H]([C@@H]1C#N)N2C)OCO4 [P12] for me?
< 1 nM

Can you look up the measured IC50 of COc1ccc2[nH]c3c(c2c1)CCN[C@]31CS[C@@H]2c3c(OC(C)=O)c(C)c4c(c3[C@H](COC1=O)N1[C@@H]2[C@H]2c3c(cc(C)c(OC)c3O)C[C@@H]([C@@H]1O)N2C)OCO4 [Lurbinectedin, reference compound] for me?
< 1 nM

Can you look up the measured IC50 of COc1c(C)cc2c(c1O)[C@@H]1[C@@H]3[C@@H]4SC[C@]5(NCCc6cc(N)c(O)cc65)C(=O)OC[C@@H](c5c6c(c(C)c(OC(C)=O)c54)OCO6)N3[C@@H](C#N)[C@H](C2)N1C [T8] for me?
1 to 10 nM

Can you look up the measured IC50 of COc1cc2c(cc1NC(=O)C(O)C1CC1)CCN[C@]21CS[C@@H]2c3c(OC(C)=O)c(C)c4c(c3[C@H](COC1=O)N1[C@@H]2[C@H]2c3c(cc(C)c(OC)c3O)C[C@@H]([C@@H]1C#N)N2C)OCO4 (stereo partly drawn) [P58] for me?
< 1 nM
